Origin of the recorded values: patent US11390631B1

Each record here notes measured CC50 at 5 days.
assay: Cytotoxicity on parallel plate without virus, ATPlite readout; assay type: cell-based; conditions: human, Hep-2 cells (no virus), Hep-2 cells without virus, 5-day incubation

Solved cases (10 shown):
[[record]]
molecule = "O=C1Nc2ccccc2C(c2ccccc2)=NC1Nc1nnc(-c2ccc3nc[nH]c3c2)o1 (centres unmarked)"
readoutvalue = "> 50 µM"

[[record]]
molecule = "O=C1Nc2ccccc2C(c2ccccc2)=NC1Nc1nnc([C@H]2COCCN2)o1 (some centres unmarked)"
readoutvalue = "> 50 µM"

[[record]]
molecule = "O=C1Nc2ccccc2C(c2ccccc2)=N[C@@H]1Nc1nnc(-c2ccc(F)cc2)o1"
readoutvalue = "> 50 µM"

[[record]]
molecule = "O=C1Nc2ccccc2C(c2ccccc2)=NC1Nc1nc(N2CCOCC2)ns1 (centres unmarked)"
readoutvalue = "10 to 50 µM"

[[record]]
molecule = "O=C1Nc2ccccc2C(c2ccccc2)=NC1Nc1nnc(-c2cscn2)o1 (centres unmarked)"
readoutvalue = "> 50 µM"

[[record]]
molecule = "O=C1Nc2ccccc2C(c2ccccc2)=NC1Nc1nnc(-c2ccc(Cl)o2)o1 (centres unmarked)"
readoutvalue = "> 50 µM"

[[record]]
molecule = "O=C1Nc2ccccc2C(c2ccccc2)=NC1Nc1nnc(-c2ncccn2)o1 (centres unmarked)"
readoutvalue = "> 50 µM"

[[record]]
molecule = "O=C1Nc2ccccc2C(c2ccccc2)=NC1Nc1nc2ccccc2s1 (centres unmarked)"
readoutvalue = "10 to 50 µM"

[[record]]
molecule = "COCc1ccc(-c2nnc(NC3N=C(c4ccccc4)c4ccccc4NC3=O)o2)o1 (centres unmarked)"
readoutvalue = "> 50 µM"

[[record]]
molecule = "NS(=O)(=O)c1ccc(-c2nnc(NC3N=C(c4ccccc4)c4ccccc4NC3=O)o2)cc1 (centres unmarked)"
readoutvalue = "> 50 µM"


**Query** Value lookup for CC50 at 5 days; key = O=C1Nc2ccccc2C(c2ccccc2)=NC1Nc1nnc(C2CCOCC2)o1 (centres unmarked)
**Result** > 50 µM

**Query** Repeat for the following molecule: O=C1Nc2ccccc2C(c2ccccc2)=NC1Nc1ccnc(-c2ccccc2)n1 (centres unmarked)
**Result** 10 to 50 µM

**Query** Repeat for the following molecule: Cc1cccc(-c2nnc(NC3N=C(c4ccccc4)c4ccccc4NC3=O)o2)n1 (centres unmarked)
**Result** > 50 µM

**Query** Repeat for the following molecule: O=C1Nc2ccccc2C(c2ccccc2)=NC1Nc1nnc(-c2ccc(F)nc2)o1 (centres unmarked)
**Result** > 50 µM

**Query** Repeat for the following molecule: O=C1Nc2ccccc2C(c2ccccc2)=NC1Nc1nnc(-c2ccc(C(F)(F)F)cc2)o1 (centres unmarked)
**Result** > 50 µM

**Query** Repeat for the following molecule: N#Cc1ccc(-c2nnc(NC3N=C(c4ccccc4)c4ccccc4NC3=O)s2)cc1 (centres unmarked)
**Result** > 50 µM

**Query** Repeat for the following molecule: O=C1Nc2ccccc2C(c2ccccc2)=NC1Nc1nnc(-c2cc3cccnc3s2)o1 (centres unmarked)
**Result** > 50 µM

###

tested on: RSV-B, genotype B, strain 9320; test: RSV-B assay: A549 cells infected with RSV-B, qPCR or ATPlite readout; type: cell-based, Human respiratory syncytial virus (HRSV); conditions: human respiratory syncytial virus, A549, read-out: Human RSV-B EC50
pEC50: −log10 of the molar value.
reportedProperty: pEC50

Solved cases (5 shown):
[[record]]
compound = "COC1CCN(c2cc(C(F)(F)F)cnc2-c2nnc(N[C@H]3N=C(c4ccccc4)c4ccccc4NC3=O)o2)CC1"
reportedproperty = "pEC50"
readoutvalue = "6.10 to 6.40"

[[record]]
compound = "Cc1ccc(-c2nnc(N[C@H]3N=C(c4ccccc4)c4ccccc4NC3=O)o2)c(N2CCOCC2)n1"
reportedproperty = "pEC50"
readoutvalue = "> 6.40"

[[record]]
compound = "O=C1Nc2ccccc2C(c2ccccc2)=NC1Nc1nnc(-c2ccc(-n3cccn3)cc2)[nH]1 (stereo not drawn)"
reportedproperty = "pEC50"
readoutvalue = "6.10 to 6.40"

[[record]]
compound = "C[C@@H]1CN(c2cc(C(F)(F)F)cnc2-c2nnc(N[C@H]3N=C(c4ccccc4)c4ccccc4NC3=O)o2)CCO1"
reportedproperty = "pEC50"
readoutvalue = "> 6.40"

[[record]]
compound = "O=C1Nc2ccccc2C(c2ccccc2)=NC1Nc1nnc(-c2cccnc2N2CCOCC2)o1 (stereo not drawn)"
reportedproperty = "pEC50"
readoutvalue = "6.10 to 6.40"


**Query** Value lookup for pEC50; key = `O=C1Nc2ccccc2C(c2ccccc2)=N[C@@H]1Nc1nnc(-c2nc(-c3ccccc3)sc2N2CCOCC2)o1`
**Result** > 6.40

**Query** Repeat for the following compound: `O=C1Nc2ccccc2C(c2ccccc2)=N[C@@H]1Nc1nnc(-c2csc(N3CCOCC3)n2)o1`
**Result** 6.10 to 6.40

**Query** Repeat for the following compound: N#Cc1ccc(-c2nnc(NC3N=C(c4ccccc4)c4ccccc4NC3=O)o2)c(N2CCOCC2)c1 (stereo not drawn)
**Result** > 6.40

**Query** Repeat for the following compound: `O=C1Nc2ccccc2C(c2ccccc2)=N[C@@H]1Nc1nnc(-c2ccc(C(F)(F)F)nc2N2CC3CCC(C2)O3)o1`
**Result** < 6.10

**Query** Repeat for the following compound: `CC(F)(F)c1nc(-c2nnc(N[C@H]3N=C(c4ccccc4)c4ccccc4NC3=O)o2)c(N2CCOCC2)s1`
**Result** > 6.40

**Query** Repeat for the following compound: `O=C1Nc2ccccc2C(c2ccccc2)=N[C@@H]1Nc1nnc(-c2nc(C(F)(F)F)sc2N2CCOCC2)o1`
**Result** > 6.40

**Query** Repeat for the following compound: `O=C1Nc2ccccc2C(c2ccccc2)=N[C@@H]1Nc1nnc(-c2ncc(F)cc2N2CCOCC2)o1`
**Result** > 6.40

**Query** Repeat for the following compound: O=C1Nc2ccccc2C(c2ccccc2)=NC1Nc1nnc(-c2ccc(F)cc2N2CCOCC2)o1 (stereo not drawn)
**Result** > 6.40

**Query** Repeat for the following compound: `O=C1Nc2ccccc2C(c2ccccc2)=N[C@@H]1Nc1nnc(-c2ncc(C(F)(F)F)cc2N2CCC(F)CC2)o1`
**Result** 6.10 to 6.40

**Query** Repeat for the following compound: `O=C1Nc2ccccc2C(c2ccccc2)=N[C@@H]1Nc1nnc(-c2cccnc2N2CCOCC2)o1`
**Result** > 6.40

###

experiment: Cytotoxicity on parallel plate without virus, ATPlite readout; type: cell-based; settings: human, Hep-2 cells (no virus), Hep-2 cells without virus, 5-day incubation
reportedProperty: CC50 at 5 days

[[record]]
compound = "N#Cc1cccc(-c2nnc(NC3N=C(c4ccccc4)c4ccccc4NC3=O)o2)c1 (centres unmarked) [Example 35]"
readoutvalue = "> 50 µM"

[[record]]
compound = "Cc1ccc(-c2nnc(NC3N=C(c4ccccc4)c4ccccc4NC3=O)o2)s1 (centres unmarked) [Example 19]"
readoutvalue = "> 50 µM"

[[record]]
compound = "CC(=O)N1CCC(c2nnc(NC3N=C(c4ccccc4)c4ccccc4NC3=O)o2)CC1 (centres unmarked) [Example 47]"
readoutvalue = "> 50 µM"


**Query** Value lookup for CC50 at 5 days; key = O=C1Nc2ccccc2C(c2ccccc2)=N[C@H]1Nc1nnc(-c2ccc(F)cc2)o1 [Example 7b]
**Result** 10 to 50 µM

**Query** Repeat for the following compound: O=C1Nc2ccccc2C(c2ccccc2)=NC1Nc1nnco1 (centres unmarked) [Example 79]
**Result** > 50 µM

###

assay: Cytotoxicity on parallel plate without virus, ATPlite readout; format: cell-based; conditions: human, Hep-2 cells (no virus), Hep-2 cells without virus, 5-day incubation
reportedProperty: CC50 at 5 days

Solved cases (2 shown):
[[record]]
compound = "O=C1Nc2ccccc2C(c2ccccc2)=NC1Nc1ncc(-c2ccccc2)o1 (stereo not shown) [Example 84]"
readoutvalue = "10 to 50 µM"

[[record]]
compound = "O=C1Nc2ccccc2C(c2ccccc2)=NC1Nc1cc(Oc2ccccc2)ncn1 (stereo not shown) [Example 94]"
readoutvalue = "10 to 50 µM"


**Query** Value lookup for CC50 at 5 days; key = O=C1Nc2ccccc2C(c2ccccc2)=NC1Nc1nnc(-c2cccc3ccccc23)o1 (stereo not shown) [Example 17]
**Result** > 50 µM

**Query** Repeat for the following compound: Cc1cc(-c2nnc(NC3N=C(c4ccccc4)c4ccccc4NC3=O)o2)ccc1C#N (stereo not shown) [Example 34]
**Result** > 50 µM

###

Test system: RSV-B, genotype B, strain 9320
Assay: RSV-B assay: A549 cells infected with RSV-B, qPCR or ATPlite readout
Format: cell-based, Human respiratory syncytial virus (HRSV)
Conditions: human respiratory syncytial virus, A549, read-out: Human RSV-B EC50
From the text: Hep-2 cells, (originally derived from tumors grown in irradiated-cortisonised weanling rats that had been injected with epidermoid carcinoma tissue from a person's larynx, but later found to be indistinguishable from HeLa cells by PCR DNA analysis), were used for the culturing of genotype B, strain 9320. […] Viral stock titers were quantified by tissue culture infectious dose 50% o (TCID50) using 8,000 cells per well and 5-fold viral dilutions across a 96-well plate, cultured for 4 days. […]
reportedProperty: EC50

[[record]]
compound = "Cc1ccc(-c2nnc(NC3N=C(c4ccccc4)c4ccccc4NC3=O)o2)c(N2CCOCC2)n1 (stereo not drawn) [Example 144]"
readoutvalue = "< 400 nM"

[[record]]
compound = "COCCOc1cc(C#N)ccc1-c1nnc(N[C@H]2N=C(c3ccccc3)c3ccccc3NC2=O)o1 [Example 300]"
readoutvalue = "< 400 nM"

[[record]]
compound = "O=C1Nc2ccccc2C(c2ccccc2)=N[C@@H]1Nc1nnc(-c2ncc(Br)cc2N2CCOCC2)o1 [Example 168]"
readoutvalue = "< 400 nM"


**Query** Value lookup for EC50; key = N#Cc1ccc(-c2ccc(NC3N=C(c4ccccc4)c4ccccc4NC3=O)nn2)cc1 (stereo not drawn) [Example 377]
**Result** < 400 nM

**Query** Repeat for the following compound: O=C1Nc2ccccc2C(c2ccccc2)=N[C@@H]1Nc1nnc(-c2oc3ccccc3c2N2CCOCC2)o1 [Example 179]
**Result** < 400 nM

**Query** Repeat for the following compound: O=C1Nc2ccccc2C(c2ccccc2)=NC1Nc1nnc(-c2ccc(N3CCOCC3)cc2)o1 (stereo not drawn) [Example 124]
**Result** < 400 nM

**Query** Repeat for the following compound: O=C1Nc2ccccc2C(c2ccccc2)=N[C@@H]1Nc1nnc(-c2nc3ccccc3cc2N2CCOCC2)o1 [Example 322]
**Result** < 400 nM

**Query** Repeat for the following compound: O=C1Nc2ccccc2C(c2ccccc2)=N[C@@H]1Nc1nnc(-c2ncc(C3CC3)cc2N2CCOCC2)o1 [Example 169]
**Result** < 400 nM

**Query** Repeat for the following compound: O=C1Nc2ccccc2C(c2ccccc2)=N[C@@H]1Nc1nnc(-c2nc(-c3ccncc3)sc2N2CCOCC2)o1 [Example 429]
**Result** < 400 nM

**Query** Repeat for the following compound: N#Cc1cnc(-c2nnc(N[C@H]3N=C(c4ccccc4)c4ccccc4NC3=O)o2)c(N2CCOCC2)c1 [Example 160]
**Result** < 400 nM

**Query** Repeat for the following compound: O=C1Nc2ccccc2C(c2ccccc2)=N[C@@H]1Nc1nnc(-c2nc(-c3ccccn3)sc2N2CCOCC2)o1 [Example 341]
**Result** < 400 nM

**Query** Repeat for the following compound: Cc1nc(N2CCOCC2)c(-c2nnc(N[C@H]3N=C(c4ccccc4)c4ccccc4NC3=O)o2)cc1C#N [Example 158]
**Result** < 400 nM

**Query** Repeat for the following compound: O=C1Nc2ccccc2C(c2ccccc2)=N[C@@H]1Nc1nnc(-c2nc(C3CC3)sc2N2CCOCC2)o1 [Example 338]
**Result** < 400 nM

**Query** Repeat for the following compound: N#Cc1ccc(-c2nnc(N[C@H]3N=C(c4ccccc4)c4ccccc4NC3=O)o2)c(N2CCOCC2)n1 [Example 153]
**Result** < 400 nM

**Query** Repeat for the following compound: O=C1Nc2ccccc2C(c2ccccc2)=N[C@@H]1Nc1nnc(-c2nc(-c3cccnc3)sc2N2CCOCC2)o1 [Example 388]
**Result** < 400 nM

**Query** Repeat for the following compound: N#CCCNc1cc(C(F)(F)F)cnc1-c1nnc(N[C@H]2N=C(c3ccccc3)c3ccccc3NC2=O)o1 [Example 303]
**Result** < 400 nM

**Query** Repeat for the following compound: O=C1Nc2ccccc2C(c2ccccc2)=NC1Nc1nnc(-c2ccc(C(F)(F)F)cc2N2CCOCC2)o1 (stereo not drawn) [Example 123]
**Result** 400 to 800 nM

**Query** Repeat for the following compound: O=C1Nc2c(F)cccc2C(c2ccccc2)=N[C@@H]1Nc1nnc(-c2ccccc2N2CCOCC2)o1 [Example 355a]
**Result** < 400 nM

**Query** Repeat for the following compound: Cc1nc(-c2nnc(N[C@H]3N=C(c4ccccc4)c4ccccc4NC3=O)o2)c(N2CCOCC2)s1 [Example 272]
**Result** < 400 nM
